src = ChEMBL document CHEMBL2069238

Please provide measured pIC50 for the entries that follow.
- ASSAYED_TARGET: Mitogen-activated protein kinase 14 (Homo sapiens, UniProt Q16539)
- Sequence (Q16539 whole entry): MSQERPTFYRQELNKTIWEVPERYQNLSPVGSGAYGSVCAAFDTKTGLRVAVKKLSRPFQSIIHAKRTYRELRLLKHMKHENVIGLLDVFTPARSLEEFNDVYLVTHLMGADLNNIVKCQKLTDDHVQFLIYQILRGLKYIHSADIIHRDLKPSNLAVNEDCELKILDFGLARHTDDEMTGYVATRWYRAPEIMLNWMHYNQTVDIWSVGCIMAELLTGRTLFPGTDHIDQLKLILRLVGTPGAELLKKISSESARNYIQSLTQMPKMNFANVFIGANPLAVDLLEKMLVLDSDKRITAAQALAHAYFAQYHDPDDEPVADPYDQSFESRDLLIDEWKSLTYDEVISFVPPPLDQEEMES
- TEST_SUMMARY: Inhibition of MAPK p38alpha
pIC50: −log10 of the molar value.

Q: Please look up its pIC50: `CN1CCN(CCCOc2ccc(N3C(=O)/C(=C/c4ccc(Oc5cccc(C(N)=O)c5)cc4)SC3=S)cc2)CC1`
Ans: < 4.52

Q: Please look up its pIC50: `CN1CCN(CCCOc2ccc(N3C(=O)/C(=C/c4ccc(Oc5ccc(C(N)=O)cc5)cc4)SC3=S)cc2)CC1`
Ans: < 4.52

Q: Please look up its pIC50: `NC(=O)c1ccc(Oc2ccc(/C=C3\SC(=S)N(c4ccc(OCCCN5CCCC5)cc4)C3=O)cc2)cc1`
Ans: < 4.52
